ASSAYED_SYSTEM: cloned human m4 muscarinic receptor (Homo sapiens)
Construct: expressed in transfected cells; host or cells: CHO cells, stably transfected (membranes)
Sequence (P08173 1-479): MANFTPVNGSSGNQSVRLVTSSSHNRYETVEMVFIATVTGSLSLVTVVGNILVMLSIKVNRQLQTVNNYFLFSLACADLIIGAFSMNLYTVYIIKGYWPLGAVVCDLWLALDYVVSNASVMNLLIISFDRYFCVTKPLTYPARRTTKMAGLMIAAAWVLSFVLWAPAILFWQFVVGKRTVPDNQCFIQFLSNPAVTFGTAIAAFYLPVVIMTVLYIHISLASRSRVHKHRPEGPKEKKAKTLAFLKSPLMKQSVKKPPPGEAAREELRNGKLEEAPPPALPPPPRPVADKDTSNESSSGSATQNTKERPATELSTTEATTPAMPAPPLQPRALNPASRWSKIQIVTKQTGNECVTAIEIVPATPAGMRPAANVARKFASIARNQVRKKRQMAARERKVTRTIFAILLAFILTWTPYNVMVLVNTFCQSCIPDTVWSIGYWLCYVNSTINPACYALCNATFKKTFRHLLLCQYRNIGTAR
METHOD_SUMMARY: Muscarinic binding activity: inhibition of 3H-QNB binding, m4 (and m4 selectivity)
EXPERIMENTAL_PARAMETERS: Ki for m4 divided by Ki for m2
Recorded m4 Selectivity Ratio (Ki,m4/Ki,m2) by entry
Write the value as a bare number.

Some solved entries appear below for comparison.
[ask] Would you mind telling me what m4 Selectivity Ratio (Ki,m4/Ki,m2) value was observed for N#CN(c1ccc(S(=O)(=O)C2CCCCC2)cc1)C1CCN(C2CCCCC2)CC1 ?
[reply] 1.4

[ask] m4 Selectivity Ratio (Ki,m4/Ki,m2) for COc1ccc(S(=O)(=O)c2ccc(N(C)C3CCN(C4CCCCC4)CC3)cc2)cc1 ?
[reply] 3.3

[ask] Item under review: C=CCN(c1ccc(S(=O)(=O)c2ccc(OC)cc2)cc1)C1CCN(C2CCCCC2)CC1 . Reported m4 Selectivity Ratio (Ki,m4/Ki,m2)?
[reply] 2.7

[ask] What measured m4 Selectivity Ratio (Ki,m4/Ki,m2) goes with CC(=O)Nc1ccc([S+]([O-])c2ccc(N(C#N)C3CCN(C4CCCCC4)CC3)cc2)cc1 (stereo not drawn) ?
[reply] 3.0

[ask] What value of m4 Selectivity Ratio (Ki,m4/Ki,m2) has been reported for the following molecule? N#CN(c1ccc(S(=O)(=O)c2ccc3c(c2)OCO3)cc1)C1CCN(C2CCCCC2)CC1
[reply] 3.6

Note: attention shifts to another entry.
[ask] Give the measured m4 Selectivity Ratio (Ki,m4/Ki,m2) of COc1ccc([S+]([O-])c2ccc(N(C#N)C3CCN(C4CCCCC4)CC3)cc2)cc1 (stereo not drawn) .
[reply] 4.4

---

Each item that follows carries a reported Ki.
ASSAYED_SYSTEM: cloned human m4 muscarinic receptor (Homo sapiens, UniProt P08173)
Construct: expressed in transfected cells; host or cells: CHO cells, stably transfected (membranes)
METHOD_SUMMARY: Muscarinic binding activity: inhibition of 3H-QNB binding, m4 (and m4 selectivity)
EXPERIMENTAL_PARAMETERS: 3H-QNB binding, membranes of transfected CHO cells, 25° C., 90 minutes, pH 7.4; read-out: Ki, m4
Reply with just the number (in nM).

[ask] Quick check: Ki of COc1ccc([S+]([O-])c2ccc(N(C#N)C3CCN(C4CCCCC4)CC3)cc2)cc1 (stereo not shown) ?
[reply] 39.3

Further cases:
[ask] Requested field: Ki. Item: N#CN(c1ccc(S(=O)(=O)c2ccc3c(c2)OCO3)cc1)C1CCN(C2CCCCC2)CC1
[reply] 1.6

[ask] Please report the recorded Ki for CC(=O)Nc1ccc([S+]([O-])c2ccc(N(C#N)C3CCN(C4CCCCC4)CC3)cc2)cc1 (stereo not shown) .
[reply] 41.4

[ask] What value of measured Ki is listed for N#CN(c1ccc(S(=O)(=O)C2CCCCC2)cc1)C1CCN(C2CCCCC2)CC1 ?
[reply] 25.5
